test system: HS 578T breast; experiment: NCI tumour cell line growth inhibition, 48 h
Label 1 (yes) for high-side TGI (at or above 40 µM) and 0 (no) for low-side TGI (below it).

Prompt: I'd appreciate it if you could say whether CCc1cc(Nc2nccc(-c3c(-c4ccc(OC)c(C(=O)Nc5c(F)cccc5F)c4)nc4ccccn34)n2)c(OC)cc1N1CCC(N2CCN(S(C)(=O)=O)CC2)CC1 has TGI at least equal to 40 µM.
Completion: 1 (yes)

Prompt: Evaluate COc1ccc(OC)c([N+](=O)[O-])c1-c1nc2sc(C)cn2c1/C=N/N=C(N)N : TGI at minimum 40 µM?
Completion: 1 (yes)

Prompt: Kindly determine if TGI recorded for CC(=O)c1c2c(cc3c1CCC3)CCC2 is above or exactly 40 µM.
Completion: 1 (yes)

Prompt: Check this compound for TGI at or above 40 µM: Fc1sc2c(c1F)C1CCC2C1 (stereo not given)
Completion: 1 (yes)

Prompt: Could you verify whether the entry CCCCCCCC(=O)O[C@H]1[C@H]2[C@@H](CC1(C)C)C(=O)[C@]13O[C@H]1C(=O)[C@]1(CO1)[C@]23C shows TGI of no less than 40 µM?
Completion: 1 (yes)

Prompt: Could you please find out whether C=C1CC2C[C@H](OS(=O)(=O)c3ccc(C)cc3)C(C1)N2C (stereo not given in full) has TGI that meets 40 µM or exceeds it?
Completion: 1 (yes)

Prompt: Check if TGI >= 40 µM (inclusive). Item: O=C(O)c1ccccc1/C=C1/Nc2ccccc2C1=O
Completion: 1 (yes)

Prompt: Please indicate if the recorded TGI for CCCCOc1nc2ccccc2cc1C1CNC(=O)c2ccccc2N1 (stereo not given) meets or exceeds 40 µM.
Completion: 0 (no)

Prompt: # check: TGI of CCn1c(-c2nonc2N)nc2c(C#CC(C)(C)O)ncc(OCC3CCNCC3)c21 is greater than or equal to 40 µM
Completion: 0 (no)

Prompt: Does the compound O=C(Nc1ccc(Oc2cccc(Cl)c2)c(Cl)c1)c1cccnc1 have recorded TGI that is 40 µM or more?
Completion: 0 (no)
